- Tested on: smooth muscle cells (canine aorta)
- assay.text: Serotonin-induced smooth muscle cell proliferation, 3H-thymidine incorporation
- Type: cell-based
- experimental.setup: Canis lupus familiaris, Table 3, read-out: ED50 FOR SMOOTH MUSCLE CELLS, Serotonin
Recorded IC50, one value per entry.
result.type: IC50

{"columns": ["molecule", "val"],
 "data": [
  ["CC1=C(/C=C/C(C)=C/C=C/C(C)=C/C(=O)O)C(C)(C)CCC1", "47 nM"],
  ["CC1=C(/C=C/C(C)=C/C=C/C(C)=C\\C(=O)O)C(C)(C)CCC1", "5000 nM"],
  ["CC1=C(/C=C/C(C)=C\\C=C\\C(C)=C\\C(=O)O)C(C)(C)CCC1 [AGN 192013, reference compound]", "410 nM"]
]}

---

Recorded IC50, one value per entry.
- Tested on: endothelial cells (canine aorta)
- assay.text: β-FGF-induced endothelial cell proliferation, 3H-thymidine incorporation
- Type: cell-based
- experimental.setup: Canis lupus familiaris, Table 3, read-out: ED50 FOR ENDOTHELIAL Cells, β-FGF
- Procedure: The effect of 1% serum on DNA synthesis by endothelial or smooth muscle cells using ^3 H-thymidine incorporation was measured. […] Four hours after the addition of 3H-thymidine the DNA was precipitated and the amount of ^3 H-thymidine incorporated was measured. This value is reported as the serum or serotonin or β-FGF stimulated value for cellular proliferation and is expressed as a percentage of baseline ^3 H-thymidine incorporation. […]

{"columns": ["molecule", "IC50 [nM]"],
 "data": [
  ["CC1=C(/C=C/C(C)=C/C=C/C(C)=C/C(=O)O)C(C)(C)CCC1", 9],
  ["CC1=C(/C=C/C(C)=C/C=C/C(C)=C\\C(=O)O)C(C)(C)CCC1", 9],
  ["CC1=C(/C=C/C(C)=C\\C=C\\C(C)=C\\C(=O)O)C(C)(C)CCC1 [AGN 192013, reference compound]", 26500]
]}
